Target: T1, Human MAGEB2 (Melanoma-associated antigen B2) (human, UniProt O15479 1-319)
T1 construct: Intracellular antigen detected by IHC in FFPE material: CHO cells transfected with human MAGEB2 (mCherry vector with Myc/DDK tags, or ORF without tags)
T1 sequence: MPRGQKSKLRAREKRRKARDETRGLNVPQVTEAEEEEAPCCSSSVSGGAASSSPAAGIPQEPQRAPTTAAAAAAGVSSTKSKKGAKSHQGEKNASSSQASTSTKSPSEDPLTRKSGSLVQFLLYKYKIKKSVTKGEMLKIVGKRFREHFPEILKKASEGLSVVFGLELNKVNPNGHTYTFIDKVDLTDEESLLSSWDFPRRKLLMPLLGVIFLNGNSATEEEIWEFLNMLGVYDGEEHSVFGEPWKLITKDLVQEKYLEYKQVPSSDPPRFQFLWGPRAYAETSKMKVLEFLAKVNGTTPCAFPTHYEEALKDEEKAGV
Assay: IHC on FFPE U266B1 cells (endogenous MAGEB2)
Some binders, each annotated with its measured IHC Intensity.
Keep the answer to the number alone.

Report IHC Intensity for 4G17 (antibody, IgG1, V domains shown, Rabbit monoclonal IgG1; Tested as supernatant and as small batch purified antibody; also called MAGE-B2 (4G17); anti-MAGEB2 antibody 4G17) VH: QSLEESGGGLVQPEGSLTLTCTASGVTLSNYYICWVRQAPGKGLEWIGCIDNVNGRTYYASWAKGRFTISKTSSTTGTLQMTSLTAADTATYFCARSLATPLWGPGTLVTVSS VL: DIVMTQTPASVEAAVGGTVTIKCQASQNIDSYLAWYQQKPGQPPKLLIYRASTLASGVPSRFKGSGSGTEFTLTISDLECADAATYYCQSYDDSRSSSFFYGFGGGTEVVVK please. 2

Here is the next binder: 1C3 (antibody, V domains shown, also called MAGE-B2 (IC3); anti-MAGEB2 antibody 1C3) VH: QSLEESGGGLVQPEGSLTLTCTAFGVTLTNYYICWVRQAPGKGLEWVGCIDNANGRTYYASWAKGRFTISKTSSTTGTLQMTSLTAADTATYFCARSLATPLWGPGTLVTVSS VL: DIVMTQTPSSVEAAVGGTVTIKCQASQNISSYLAWYQQKPGQPPKLLIYRASTLASGVPSRFKGSGSGTQFTLTISDLECADAATYYCQSYDDSRSSNFFYAFGGGTEVVVKG 2

Request: 1J15 (antibody, IgG1, V domains shown, Rabbit monoclonal IgG1; Tested as supernatant and as small batch purified antibody; also called MAGE-B2 (IJ15); anti-MAGEB2 antibody 1J15) VH: QSLEESGGGLVQPEGSLTLTCTAFGFTLNNYYICWVRQAPGKGLEWIACIDNANGRTYYASWAKGRFTISKTSSTTVTLQMTSLTAADTATYFCARSLSTPLWGPGTLVTVSS VL: DIVMTQTPASVEAAVGGTVTIKCQASQSISSYLSWYQQKPGQPPKLLIYRASTLASGVPSRFRGSGSGTQFTLTISDLECADAATYYCQSYDDSSDNNFFYGFGGGTEVVVR 1

Below: the item to evaluate.
Fill blank: measured IHC Intensity of the binder 1I14 (antibody, V domains shown, also called MAGE-B2 (1i14)) VH: QSVEESGGRLVTPGTPLTLTCTISGFSLSSYAMSWVRQAPGKGLEWIGSIGGGGSAVYASWAKGRFTISKTSTTVDLRITSPTTEDTAMYFCGRGFYSIDLWGPGTLVTVSS VL: DVVMTQTPASVEATVGGTVTIKCQSSQSVYDNNALAWYQQNAGQRPRLLIYGASTLASGVPSRFSASGSGTEFTLTISDLECADAATYYCQCTYYVSSYQNDFGGGTEVVVKG is ____. 3
